# Assayed system: Bem1-2, P29366
# Sequence (P29366 139-227): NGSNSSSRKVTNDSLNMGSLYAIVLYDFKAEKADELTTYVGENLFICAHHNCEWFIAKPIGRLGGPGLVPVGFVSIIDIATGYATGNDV
# Experiment summary: SPOT array
# Setup conditions: median of control spots 4347
Quantity name: SPOT intensity

Solved entries:
- Binder: "VKPRQLFPIPLNKVD"
  SPOT intensity: 0
- Binder: "LRIKRKPVQTFFEFI"
  SPOT intensity: 4
- Binder: "APKREAPKPPANTSP"
  SPOT intensity: 0
- Binder: "GATNNAPTLPKRKNP"
  SPOT intensity: 9
- Binder: "LLIRWLILMPLVGSR"
  SPOT intensity: 4

a. KRRTSLFPWLHKPGI
b. RPKRRAPPPVPKKPS
c. KIRRSSLMIPNPQQF
d. ISNFVPPNLPMRRFK
e. NMLSRPRLAKLPSIR
Query block: Ordering criterion: SPOT intensity; begin with the maximum. Provide your answer as the labels ordered per the instruction.
Result block: b, e, d, c, a
(b: 497, e: 18, d: 7, c: 3, a: 0)

P. SKSRLLIELPEGFFT
Q. RFKRHRLEFPFNESE
Query block: // pick larger SPOT intensity from pair: P vs Q # reply format: chosen label
Result block: Q

Attribution: paper PMC2756588
